# assay name: small-molecule microarray binders of probe aWnt5a, primary screen, biochemical, biotinylated probe, 635/667 nm fluorescence (AID 1113);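 further: score merges 667 nm fluorescence intensity with signal-to-noise per printed feature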
# applied conditions: higher = more signal
Decide using composite z-score: a value greater than or equal to -0.1 is yes, a smaller one is no.

Use these answered entries as a reference point.
{"compound": "CCN1C(C)=C(C(=O)OC)[C@@H](c2ccccc2)N2C(=O)[C@@]3(C(=O)OC)O[C@@]12[C@@H]1C(=O)N(c2ccccc2)C(=O)[C@@H]13", "group label": "yes"}
{"compound": "CC[C@@H]1C=C(C(=O)O)[C@H](c2ccccc2)N1S(=O)(=O)c1ccc([N+](=O)[O-])cc1", "group label": "yes"}
{"compound": "CO[C@H]1COC(=O)[C@H](Cc2ccccc2)NC(=O)CC=C[C@@H](C)[C@H](OC)COC(=O)CC=C[C@@H]1C", "group label": "no"}
{"compound": "O=C1C2C=CC(C(O)C(c3ccccc3)c3ccccc3)N(Nc3ccc([N+](=O)[O-])cc3)C2C(=O)N1c1ccccc1 (configuration not stated)", "group label": "yes"}
{"compound": "C=C(CCCC)/C(=C/C[C@@H](OC(=O)c1ccncc1)c1cccc(OCCO)c1)c1cc(C(=O)OC)ccc1OC", "group label": "no"}
{"compound": "CC(C)CNC(=O)[C@@]1(C)c2ccccc2C(=O)N(Cc2ccc(OC(F)(F)F)cc2)[C@H]1c1ccc(CO)cc1", "group label": "no"}

Query: Given the entry `O=C1O[C@@H](c2ccccc2)[C@@H](c2ccccc2)N2[C@@H](c3ccc(O)cc3)[C@]3(C(=O)Nc4ccc(C#CC5(O)CCCCCC5)cc43)[C@@H](C(=O)Nc3nc4ccccc4s3)[C@H]12` , answer whether its composite z-score meets or surpasses -0.1.
Reply: yes
